- Target Or Test System: Mycobacterium tuberculosis InhA (Mycobacterium tuberculosis, UniProt P9WGR1)
- Construct: made in house; host or cells: E. coli
- Sequence (P9WGR1 whole entry, looked up): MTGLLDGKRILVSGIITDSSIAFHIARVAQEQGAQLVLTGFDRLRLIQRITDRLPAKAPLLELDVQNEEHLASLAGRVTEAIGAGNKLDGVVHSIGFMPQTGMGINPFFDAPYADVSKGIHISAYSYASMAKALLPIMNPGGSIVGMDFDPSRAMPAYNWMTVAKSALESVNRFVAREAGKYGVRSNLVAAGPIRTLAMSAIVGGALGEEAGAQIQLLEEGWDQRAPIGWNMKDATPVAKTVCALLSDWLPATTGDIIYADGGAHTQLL
- Assay Name: Mycobacterium tuberculosis InhA Inhibition Assay (Enzyme Assay)
- Format: biochemical
- Run Conditions: 5 nM InhA, 50 μM DDCoA, 50 μM NADH, PIPES buffer pH 6.8; initial velocities of NADH consumption; read-out: IC50 value
Kindly state IC50 for each of the entries shown.

Some entries whose results are on file:
Cc1cc(C)n(C(C)c2nnc(Nc3ccn(Cc4c(F)ccc(C)c4Cl)n3)s2)n1 (stereo not shown) [Example 23] | < 112 nM
Cc1cc(C)n(C(C)c2nnc(Nc3ccn(Cc4ccccc4Br)n3)s2)n1 (stereo not shown) [Example 3] | < 109 nM
Cc1cc(C)n(C(C)c2nnc(Nc3ccn(Cc4cc(Cl)ccc4Cl)n3)s2)n1 (stereo not shown) [Example 2] | < 112 nM

Looking for the measured IC50 of Cc1cc(C)n(Cc2nnc(Nc3ccn(Cc4ccccc4Cl)n3)s2)n1 [Example 56] , can you help? < 125 nM

----------
Kindly state MIC for each of the entries shown.
- Test system: Mycobacterium tuberculosis H37Rv
- Assay Name: Mycobacterium tuberculosis H37Rv Inhibition Assay (Whole Cell Assay)
- Format: cell-based
- Run Conditions: ATCC 25618 / H37Rv, H37Rv strain (ATCC25618), Middlebrook 7H9, six days at 37° C., resazurin fluorescence after 48 hours

Some entries whose results are on file:
Cc1cc(C)n(C(C)c2nnc(Nc3ccn(Cc4ccccc4C)n3)s2)n1 (centres unmarked) | 1 to 4 µM
Cc1ccn(C(C)c2nnc(Nc3ccn(Cc4cccc(C)c4F)n3)s2)n1 (centres unmarked) | ≤ 1 µM
Cc1cc(C)n([C@@H](C)c2nnc(Nc3ccn(Cc4c(F)cccc4Cl)n3)s2)n1 (single isomer, unassigned) | 1 to 4 µM
Cc1csc(Cc2nnc(Nc3ccn(Cc4c(F)cccc4Cl)n3)s2)n1 | 4 to 10 µM
Cc1cc(C)n(C(C)c2nnc(Nc3ccn(Cc4ccccc4Br)n3)s2)n1 (centres unmarked) | 1 to 4 µM

For every record below, what is its MIC?
1. Cc1cc(C)n(C(C)c2nnc(Nc3ccn(Cc4c(F)ccc(N)c4F)n3)s2)n1 (centres unmarked)
2. Cc1csc([C@@](C)(O)c2nnc(Nc3ccn(Cc4c(F)cccc4Cl)n3)s2)n1 (single isomer, unassigned)

1 to 4 µM
1 to 4 µM

Looking for the measured MIC of "Cc1cc(C)n(Cc2nnc(Nc3ccn(Cc4c(Cl)cccc4Cl)n3)s2)n1" , can you help? > 10 µM

----------
- Target Or Test System: Mycobacterium tuberculosis InhA (Mycobacterium tuberculosis, UniProt P9WGR1)
- Construct: made in house; host or cells: E. coli
- Assay Name: Mycobacterium tuberculosis InhA Inhibition Assay (Enzyme Assay)
- Assay type: biochemical
- Run Conditions: IC50 value, 5 nM InhA, 50 μM DDCoA, 50 μM NADH, PIPES buffer pH 6.8; initial velocities of NADH consumption
Measurement Kind: IC50

Some entries whose results are on file:
Cc1cc(C(F)F)nn1Cc1nnc(Nc2ccn(Cc3ccccc3)n2)s1 [Example 45] | 125 to 249 nM
Cc1ccn(C(C)c2nnc(Nc3ccn(Cc4ccccc4)n3)s2)n1 (centres unmarked) [Example 44] | 137 to 274 nM

For every record below, what is its IC50?
1. O=[N+]([O-])c1ccn(Cc2nnc(Nc3ccn(Cc4c(F)cccc4Cl)n3)s2)n1 [Example 52]
2. Cc1csc(C(C)(O)c2nnc(Nc3ccn(Cc4cccc(F)c4F)n3)s2)n1 (centres unmarked) [Example 80]
3. Cc1csc(C(C)(C)c2nnc(Nc3ccn(Cc4c(F)cccc4Cl)n3)s2)n1 [Example 74]
4. CCOc1c(F)ccc(F)c1Cn1ccc(Nc2nnc(C(C)n3nc(C)cc3C)s2)n1 (centres unmarked) [Example 82]
5. Cc1cc(C)n(C(C)c2nnc(Nc3ccn(Cc4c(F)ccc(C)c4F)n3)s2)n1 (centres unmarked) [Example 81]
6. Cc1csc(C(C)(O)c2nnc(Nc3ccn(Cc4c(F)cccc4F)n3)s2)n1 (racemic) [Example 78]

1: 115 to 230 nM; 2: < 115 nM; 3: < 111 nM; 4: < 109 nM; 5: < 116 nM; 6: < 115 nM
